- measured.target: T1, EsCas13d, nuclease-dead (Eubacterium siraeum, UniProt B0MS50, R295A;H300A;R849A;H854A)
- T1 sequence: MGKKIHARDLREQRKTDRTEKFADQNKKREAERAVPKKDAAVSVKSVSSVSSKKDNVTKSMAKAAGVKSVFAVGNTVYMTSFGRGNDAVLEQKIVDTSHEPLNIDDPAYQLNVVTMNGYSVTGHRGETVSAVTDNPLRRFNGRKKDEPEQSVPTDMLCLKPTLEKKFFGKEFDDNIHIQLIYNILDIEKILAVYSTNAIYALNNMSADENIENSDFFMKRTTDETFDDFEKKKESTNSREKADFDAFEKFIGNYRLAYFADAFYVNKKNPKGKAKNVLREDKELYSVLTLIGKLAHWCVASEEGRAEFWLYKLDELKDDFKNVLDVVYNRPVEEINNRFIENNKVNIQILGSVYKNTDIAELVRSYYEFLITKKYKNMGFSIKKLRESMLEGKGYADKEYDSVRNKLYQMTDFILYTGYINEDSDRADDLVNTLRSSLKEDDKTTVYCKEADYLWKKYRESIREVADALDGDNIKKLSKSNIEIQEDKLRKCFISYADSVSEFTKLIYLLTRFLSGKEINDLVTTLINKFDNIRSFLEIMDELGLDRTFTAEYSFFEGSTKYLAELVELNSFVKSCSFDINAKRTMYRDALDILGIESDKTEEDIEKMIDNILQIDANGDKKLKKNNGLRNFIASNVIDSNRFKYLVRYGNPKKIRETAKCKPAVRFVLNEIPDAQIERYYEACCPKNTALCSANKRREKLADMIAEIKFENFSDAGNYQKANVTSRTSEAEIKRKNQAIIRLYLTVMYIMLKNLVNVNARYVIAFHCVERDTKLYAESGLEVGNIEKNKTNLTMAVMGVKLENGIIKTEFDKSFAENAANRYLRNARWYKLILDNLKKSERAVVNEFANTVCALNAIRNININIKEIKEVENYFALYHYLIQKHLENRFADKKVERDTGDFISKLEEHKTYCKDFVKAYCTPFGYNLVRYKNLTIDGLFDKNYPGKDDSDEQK
- assay.remarks: crRNA (strand 1, pre-loaded); Mg2+; 40 mM Tris-HCl pH 7.5, 150 mM NaCl, 6 mM MgCl2, 1 mM DTT, 0.1% Tween-20, 0.2 mg/ml BSA; 25 C; 10 min per concentration, then washed
- conditions.used: tags: His6-TwinStrep-SUMO cleaved; N-terminal SNAP kept (SNAP-Surface 488); label: 3' end held by stalled T7 RNA polymerase

>  <binder>
target 2 MT 5'PFS ACG 3'PFS CUU (mixed) RNA 1: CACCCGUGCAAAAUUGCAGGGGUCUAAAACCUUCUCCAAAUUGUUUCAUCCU RNA 2: GGGAAUGGAUCCACAUCUACGAAUUCACGAGGAUGAAACAAUUUGGAGAAGCUUAGAUCGGAAGAGCACACGU

>  <Kd [µM]>
0.0111

$$$$
>  <binder>
target 1 MT 5'PFS GGC 3'PFS AAU (mixed) RNA 1: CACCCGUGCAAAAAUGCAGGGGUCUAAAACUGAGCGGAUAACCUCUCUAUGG RNA 2: GGGAAUGGAUCCACAUCUACGAAUUCGGCCCAUAGAGAGGUUAUCCGCUCAAAUAGAUCGGAAGAGCACACGU

>  <Kd [µM]>
0.0445

$$$$
>  <binder>
target 1 MT 5'PFS GUA 3'PFS CUA (mixed) RNA 1: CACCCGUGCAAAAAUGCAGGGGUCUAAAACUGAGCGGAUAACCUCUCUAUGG RNA 2: GGGAAUGGAUCCACAUCUACGAAUUCGUACCAUAGAGAGGUUAUCCGCUCACUAAGAUCGGAAGAGCACACGU

>  <Kd [µM]>
0.0102

$$$$
>  <binder>
target 1 MT 5'PFS CCA 3'PFS AUA (mixed) RNA 1: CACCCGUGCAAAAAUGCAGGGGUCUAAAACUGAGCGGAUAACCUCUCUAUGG RNA 2: GGGAAUGGAUCCACAUCUACGAAUUCCCACCAUAGAGAGGUUAUCCGCUCAAUAAGAUCGGAAGAGCACACGU

>  <Kd [µM]>
0.0061

$$$$
